# Assayed system: T1, recombinant human IL-23R-Fc chimera (human, UniProt Q5VWK5 24-353)
# T1 construct: used at 0.1 µg/ml in the ELISA; not shown: Fc part of the chimera; detected with goat anti-hu-IgG1-HRP a
# T1 sequence (looked up): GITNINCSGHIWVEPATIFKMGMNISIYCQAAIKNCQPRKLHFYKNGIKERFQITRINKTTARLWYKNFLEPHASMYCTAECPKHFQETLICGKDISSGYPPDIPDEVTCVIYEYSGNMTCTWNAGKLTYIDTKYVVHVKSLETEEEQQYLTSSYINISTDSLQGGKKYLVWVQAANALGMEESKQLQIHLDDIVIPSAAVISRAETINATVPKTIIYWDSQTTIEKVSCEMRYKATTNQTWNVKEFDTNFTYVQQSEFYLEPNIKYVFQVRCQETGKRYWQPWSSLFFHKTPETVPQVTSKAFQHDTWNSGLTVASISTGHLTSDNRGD
# Test method notes: competition ELISA: IL-23R-Fc binding to coated human IL23
Starred links: 1 amine or outer side, 2 acyl side, 3 side chain; linkers in the order of their positions; H or OH if unused. Positions of bridges follow the written chain, without caps; N, C: chain ends. Non-standard residues stand in square brackets, D forms with d. No end group written: not given here. Yde = (2S)-2-amino-3-[4-[2-(dimethylamino)ethoxy]phenyl]propanoic acid, CN(C)CCOc1ccc(C[C@H](N[*:1])C(=O)[*:2])cc1; Trp(7-Me) = Cc1cccc2c(C[C@H](N)C(=O)O)c[nH]c12; Tyr(Me) = COc1ccc(C[C@H](N[*:1])C(=O)[*:2])cc1; 2Nal = N[C@@H](Cc1ccc2ccccc2c1)C(=O)O; 3Pal = N[C@@H](Cc1cccnc1)C(=O)O; Thp = NC1(C(=O)O)CCOCC1; Aib = CC(C)(N)C(=O)O; Ava = NCCCCC(=O)O; Sar = CNCC(=O)O
Measured parameter: IC50 (pM)
Output spec: scalar in pM, unitless text.

# Binder, Reported result
measured = [
    ("[Ava]CNT[Trp(7-Me)]K(Ac)C[Yde][2Nal][Thp]EN[3Pal][Sar]-NH2 (lactam N-11; disulfide 2-7; SMILES CC(=O)NCCCC[C@@H]1NC(=O)[C@H](Cc2c[nH]c3c(C)cccc23)NC(=O)[C@H]([C@@H](C)O)NC(=O)[C@H](CC(N)=O)NC(=O)[C@@H]2CSSC[C@H](NC1=O)C(=O)N[C@@H](Cc1ccc(OCCN(C)C)cc1)C(=O)N[C@@H](Cc1ccc3ccccc3c1)C(=O)NC1(CCOCC1)C(=O)N[C@H](C(=O)N[C@@H](CC(N)=O)C(=O)N[C@@H](Cc1cccnc1)C(=O)N(C)CC(N)=O)CCC(=O)NCCCCC(=O)N2) [Compound of SEQ ID NO: 35]", 340),
]

Incoming: What does the data say about its IC50? Entry: K(Ac)CNTWQC[Tyr(Me)][2Nal][Aib]DNN-NH2 (lactam (positions not given here); disulfide 2-7; not fully specified (bridges); printed as K[Ac](§1)-C(@2)-N-T-W-Q-C(@2)-Yme-Nal-Aib-D(§1)-N—N—NH2; also: K1 acetylated, whether acetyl is on alpha-N or epsilon-N (lactam via the other amine) not settled, §1 lactam bridge; @2 disulfide bridge) [Compound of SEQ ID NO: 7]
Outgoing: 600

Source of measurements: patent US20260258084A1
